System: BA/F3 (insSVD) cells
methodSummary: Ba/F3-EGFR-insSVD cell survival assay (Cell Titer-Glo)
Assay type: cell-based
cond: Mus musculus, BaF3, 48 h, Table 3a, cell survival, Cell Titer-Glo, with 10 ng/ml EGF, without IL-3
Form field: log10 of IC50 (one value per entry).
// units: nM (pre-log); metric: IC50; scale: log10

Endpoint output: log10 of IC50 of C=CC(=O)N1CCn2nc(-c3ccc(C(F)(F)F)c(F)c3)c(-c3ccncc3)c2C1 . Value?
1.81

Please give the measured log10 of IC50 for this compound: Cc1c[nH]c2nccc(-c3c(-c4ccc(F)cc4)nn4c3CN(C(=O)/C=C/CN(C)C)[C@H](C)C4)c12
2.11

Would you kindly share the measured log10 of IC50 for CN(C)C/C=C/C(=O)N1CCn2nc(-c3ccc(Cl)c(F)c3)c(-c3ccncc3)c2C1 ?
1.79

###

experimentalTarget: mutEGFR (D770_N771insSVD) (Homo sapiens, UniProt P00533, DUP768-770)
Construct: GST-EGFR #3 (SVD between D770 and N771); made in house; host or cells: Sf9 insect cells (baculovirus)
Sequence (P00533 with tags, fused parts or gaps DUP768-770): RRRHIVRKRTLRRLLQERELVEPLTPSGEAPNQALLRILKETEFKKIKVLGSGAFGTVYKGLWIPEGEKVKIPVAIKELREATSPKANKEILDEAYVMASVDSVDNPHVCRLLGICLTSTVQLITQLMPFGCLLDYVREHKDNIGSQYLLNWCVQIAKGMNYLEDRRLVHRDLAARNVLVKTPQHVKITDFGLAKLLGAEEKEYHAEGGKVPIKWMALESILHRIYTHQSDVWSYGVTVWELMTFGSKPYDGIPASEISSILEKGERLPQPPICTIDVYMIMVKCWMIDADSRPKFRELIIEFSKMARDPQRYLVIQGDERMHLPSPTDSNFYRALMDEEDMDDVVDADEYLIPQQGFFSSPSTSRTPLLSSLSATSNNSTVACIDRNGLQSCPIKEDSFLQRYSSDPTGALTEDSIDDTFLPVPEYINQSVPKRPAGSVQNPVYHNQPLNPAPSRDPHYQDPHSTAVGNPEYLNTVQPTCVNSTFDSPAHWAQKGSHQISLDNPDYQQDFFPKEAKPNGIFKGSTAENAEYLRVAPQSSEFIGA
methodSummary: Exon20-Mutant-EGFR (D770_N771insSVD) kinase assay (TR-FRET)
Assay type: biochemical
cond: mutEGFR (D770_N771insSVD) kinase assay IC50, Table 2a; D770_N771insSVD; 2 mM ATP
measure: IC50
Note: a bare number is incomplete; add the unit.

Param item = C=CC(=O)N1Cc2c(-c3ccncc3)c(-c3ccc(Cl)cc3)nn2C(C)(C)C1 ; retrieve measured IC50.
0.226 nM

I would be grateful if you could share the reported IC50 for O=C(/C=C/Cl)N1CCn2nc(-c3ccc(Cl)cc3F)c(-c3ccncc3)c2C1 .
0.197 nM

For the compound shown here, C=CC(=O)N1CCn2nc(-c3ccc(F)c(C#N)c3)c(-c3ccncc3)c2C1 , give the reported IC50.
23.2 nM

Recorded IC50 of C=CC(=O)N1Cc2c(-c3ccncc3)c(-c3ccc4ccccc4c3)nn2CC1C (racemic) , please.
0.116 nM

I have this compound here, C=CC(=O)N1Cc2c(-c3ccncc3)c(-c3ccc4ccsc4c3)nn2CC1C (racemic) , and I need its recorded IC50.
0.17 nM

More entries:
Query (compound): O=C(/C=C/CN1CC(F)(F)C1)N1CCn2nc(-c3ccc(F)cc3)c(-c3ccncc3)c2C1 ; field requested: IC50
13.4 nM

Could you share which IC50 value was measured for C=CC(=O)N1CCn2nc(-c3ccc(OC(F)F)cc3)c(-c3ccncc3)c2C1 ?
3.62 nM

Query: IC50; subject: C=CC(=O)N1Cc2c(-c3ccnc4[nH]cc(C)c34)c(-c3ccc(F)cc3)nn2C[C@H]1C
112 nM

Which IC50 value belongs to Cc1ccc(-c2nn3c(c2-c2ccnc4[nH]ccc24)CN(C(=O)/C=C/CN(C)C)CC3)c(F)c1 ?
5.72 nM

If you can, please state the reported IC50 value of C=CC(=O)N1CCn2nc(-c3ccc(Cl)cc3F)c(-c3ccncc3)c2C1C (single isomer, unassigned; isomer 2) [Example 279] .
50.6 nM

###

experimentalTarget: mutEGFR (D770_N771insNPG, T790) (Homo sapiens, UniProt P00533, INS770NPG/T790M)
Construct: exact insNPG construct not described; in-house EGFR proteins were N-terminal GST fusions from baculovirus/insect cells (borders R669-A1210 given only for WT, insSVD, insASV)
Sequence (P00533 with tags, fused parts or gaps INS770NPG/T790M limits assumed): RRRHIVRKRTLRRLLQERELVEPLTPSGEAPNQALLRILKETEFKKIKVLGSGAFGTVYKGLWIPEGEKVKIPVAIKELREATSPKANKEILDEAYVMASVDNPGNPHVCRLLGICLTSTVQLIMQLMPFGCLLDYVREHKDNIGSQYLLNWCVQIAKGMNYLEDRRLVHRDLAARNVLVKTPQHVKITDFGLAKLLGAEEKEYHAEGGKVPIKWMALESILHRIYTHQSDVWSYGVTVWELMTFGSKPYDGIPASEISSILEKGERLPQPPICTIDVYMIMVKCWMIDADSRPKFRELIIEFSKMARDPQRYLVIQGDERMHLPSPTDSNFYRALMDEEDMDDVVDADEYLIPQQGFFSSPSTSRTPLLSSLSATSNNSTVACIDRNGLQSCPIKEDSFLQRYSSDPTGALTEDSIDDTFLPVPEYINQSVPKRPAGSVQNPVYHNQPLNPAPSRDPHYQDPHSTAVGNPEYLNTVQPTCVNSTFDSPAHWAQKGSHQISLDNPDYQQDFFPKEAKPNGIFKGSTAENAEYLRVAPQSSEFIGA
methodSummary: mutEGFR (D770_N771insNPG, T790) kinase assay
Format: biochemical
cond: Table 2a, D770_N771insNPG
IC50 reference
Reply with just the number (in nM).

Observe how each entry below is paired with its result.
Return reported IC50; argument: CN(C)C/C=C/C(=O)N1Cc2c(-c3ccncc3)c(-c3ccc(F)cc3)nn2C(C)(C)C1
3.27

// returns reported IC50 for input Cc1c[nH]c2nccc(-c3c(-c4cccc(C#N)c4)nn4c3CN(C(=O)/C=C/CN(C)C)CC4)c12
398

Continuing:
What does the record list as IC50 for CN(C)C/C=C/C(=O)N1CCn2nc(-c3cccc(C#N)c3)c(-c3ccncc3)c2C1 ?
38.7

# IC50 lookup, item C[C@H]1Cn2nc(-c3cccc(C#N)c3)c(-c3ccncc3)c2CN1C(=O)/C=C/CN(C)C
3.5

Look up IC50 for this compound: O=C(/C=C/C(F)F)N1CCn2nc(-c3ccc(Cl)cc3F)c(-c3ccncc3)c2C1
0.807

Name the reported IC50 value associated with the compound C=CC(=O)N1CCn2nc(-c3ccc(Cl)cc3F)c(-c3ccnc4[nH]ccc34)c2C1
9.09

// IC50 lookup, key: CN(C)C/C=C/C(=O)N1CCn2nc(-c3ccc(C(F)(F)F)cc3)c(-c3ccncc3)c2C1
4.32
